SUBJECT OF TEST: DNA topoisomerase 1 (Homo sapiens) (UniProt P11387)
Sequence (whole entry): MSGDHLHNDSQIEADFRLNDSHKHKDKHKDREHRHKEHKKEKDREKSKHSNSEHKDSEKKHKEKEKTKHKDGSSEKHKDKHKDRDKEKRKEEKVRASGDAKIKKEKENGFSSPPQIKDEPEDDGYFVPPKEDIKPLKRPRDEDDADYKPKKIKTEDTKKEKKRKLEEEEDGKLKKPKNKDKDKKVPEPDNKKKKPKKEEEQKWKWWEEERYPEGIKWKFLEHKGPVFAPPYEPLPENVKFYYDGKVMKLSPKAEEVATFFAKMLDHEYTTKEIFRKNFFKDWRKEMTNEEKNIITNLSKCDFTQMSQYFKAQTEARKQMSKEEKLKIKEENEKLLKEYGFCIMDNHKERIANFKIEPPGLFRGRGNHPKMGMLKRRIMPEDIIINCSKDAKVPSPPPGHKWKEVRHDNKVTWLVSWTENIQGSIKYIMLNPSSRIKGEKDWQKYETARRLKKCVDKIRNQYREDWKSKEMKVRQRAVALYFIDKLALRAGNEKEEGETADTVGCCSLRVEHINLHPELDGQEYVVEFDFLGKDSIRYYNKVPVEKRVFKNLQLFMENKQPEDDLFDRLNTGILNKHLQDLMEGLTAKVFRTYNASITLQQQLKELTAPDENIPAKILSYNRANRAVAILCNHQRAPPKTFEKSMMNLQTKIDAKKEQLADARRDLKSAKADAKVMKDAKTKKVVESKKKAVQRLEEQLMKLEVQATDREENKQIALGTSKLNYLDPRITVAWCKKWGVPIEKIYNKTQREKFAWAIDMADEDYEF
ASSAY NOTES: Inhibition of Topoisomerase 1 (unknown origin) at 50 uM incubated for 15 mins by electrophoretic analysis
Activity calls are given as the source filed them. The rule behind the calls is not given here.
# output must be one of true (1) for active, false (0) for inactive

Ask | Per the assay record, what outcome was assigned to Cc1ccc2c(c1)C(=O)N1CCc3c([nH]c4ccc(C)cc34)C1N2c1cccc(F)c1 (configuration not stated) ?
Reply | true (1)

Ask | Per the assay record, what outcome was assigned to CC(=O)Oc1ccc2[nH]c3c(c2c1)CCN1C(=O)c2cc(F)ccc2N(c2cccc(F)c2)C31 (configuration not stated) ?
Reply | true (1)

Ask | Per the assay record, what outcome was assigned to O=C1c2cc(F)ccc2N(c2cccc(F)c2)C2c3[nH]c4ccc(Cl)cc4c3CCN12 (configuration not stated) ?
Reply | false (0)

Ask | Per the assay record, what outcome was assigned to CCOc1ccc2[nH]c3c(c2c1)CCN1C(=O)c2cc(F)ccc2N(c2cccc(F)c2)C31 (configuration not stated) ?
Reply | false (0)

Ask | Per the assay record, what outcome was assigned to COc1ccc2[nH]c3c(c2c1)CCN1C(=O)c2cc(F)ccc2N(c2cccc(F)c2)C31 (configuration not stated) ?
Reply | true (1)

Ask | Per the assay record, what outcome was assigned to O=C1c2cc(F)ccc2N(c2cccc(F)c2)C2c3[nH]c4ccc(O)cc4c3CCN12 (configuration not stated) ?
Reply | true (1)

Ask | Per the assay record, what outcome was assigned to Cc1ccc2[nH]c3c(c2c1)CCN1C(=O)c2cc(F)ccc2N(c2cccc(F)c2)C31 (configuration not stated) ?
Reply | true (1)

====

Test system: MGC-803
ASSAY NOTES: Induction of apoptosis in human MGC-803 cells assessed as late apoptotic cells at 96 nM incubated for 24 hrs by AnnexinV-FITC/PI staining based flow cytometric analysis (reference value: 0.52%)
Format: functional
REPORTED ENDPOINT: Activity (%)
Only the number, expressed in %, is required.

Ask | May I ask what Activity has been recorded for COc1cc([C@@H]2c3cc4c(cc3[C@@H](O[C@@H]3O[C@@H]5CO[C@@H](C)O[C@H]5[C@H](O)[C@H]3O)[C@H]3COC(=O)[C@H]23)OCO4)cc(OC)c1O [ETOPOSIDE] ?
Reply | 9.4

Ask | May I ask what Activity has been recorded for CC(=O)Oc1ccc2[nH]c3c(c2c1)CCN1C(=O)c2cc(F)ccc2N(c2cccc(F)c2)C31 (centres undefined) ?
Reply | 21.94

Ask | May I ask what Activity has been recorded for "CC[C@@]1(O)C(=O)OCc2c1cc1n(c2=O)Cc2cc3c(CN(C)C)c(O)ccc3nc2-1" ?
Reply | 15.95

Ask | May I ask what Activity has been recorded for O=C1c2cc(F)ccc2N(c2cccc(F)c2)C2c3[nH]c4ccc(O)cc4c3CCN12 (centres undefined) ?
Reply | 20.56
